meta.source: a melting point compilation (Tetko et al.; mined from patent text by program, amines drawn as free bases though some values may be those of a salt)

Quantity kind: melting point

# input What value of melting point has been reported for the following compound? CCCCCCCCCCCCOc1ccc([N+](=O)[O-])cc1
# output 51.5 to 53 °C

# input What value of melting point has been reported for the following compound? COC(=O)c1ccccc1Nc1cccc(N2N=CN(C)N2)c1
# output 106 to 108 °C

# input What value of melting point has been reported for the following compound? Cc1cccnc1NC(=O)Nc1cccc2c1C1CC(=O)CCN1C2=O (stereo unspecified)
# output > 260 °C

# input What value of melting point has been reported for the following compound? CC12CC(N3CCOCC3)C(O)CC1CCC1C2CCC2(C)C(C(=O)CCl)CCC12 (stereo unspecified)
# output 181 °C

# input What value of melting point has been reported for the following compound? CC(=O)c1ccccc1NC(=O)C(Cl)(Cl)Cl
# output 113 °C

# input What value of melting point has been reported for the following compound? COc1ccc(S(=O)(=O)N(CCNC(=O)NCc2ccccc2)c2ccc(C)cc2Cc2c(F)cccc2F)cc1OC
# output 100 °C

# input What value of melting point has been reported for the following compound? COc1ccc(C(=O)c2ccc(OCCBr)cc2)cc1
# output 112 to 113 °C

# input What value of melting point has been reported for the following compound? C[C@@H]([C@@H](O)c1ccc(O)cc1)N1CCC(O)(c2ccccc2)CC1 (relative stereo)
# output 202 to 204 °C

# input What value of melting point has been reported for the following compound? CCCCCCCCCCOc1ccc(C(=O)C=O)cc1
# output 81 to 83 °C

# input What value of melting point has been reported for the following compound? CCOC(=O)/C=C/c1cc(-n2ncnn2)cc(C)c1N
# output 162 to 165 °C

# input What value of melting point has been reported for the following compound? Cc1oc(-c2ccccc2)nc1CCOc1ccc(CC(F)(C(=O)O)c2ccccc2)cc1 (stereo unspecified)
# output 163 to 165 °C

# input What value of melting point has been reported for the following compound? Cc1ccc(C=CCN2CCc3nc(N)sc3CC2)cn1
# output 180 to 184 °C

# input What value of melting point has been reported for the following compound? O=C(C1CCCCC1)N1c2ccc(F)cc2CCC1CN1CCN(c2ccccc2OCC(F)(F)F)CC1 (stereo unspecified)
# output 51 °C

# input What value of melting point has been reported for the following compound? FC(F)(F)c1ccc(-c2nccc(CBr)n2)cc1
# output 125 °C

# input What value of melting point has been reported for the following compound? CC(Cc1cccnc1)n1nnc2cc3c(=O)n(C4CC4)nnc3cc2c1=O (stereo unspecified)
# output 160 to 161 °C

# input What value of melting point has been reported for the following compound? COC(=O)C(Oc1cc(OCc2ccsc2)ccc1C#N)c1ccccc1F (racemic)
# output 104 to 106 °C

# input What value of melting point has been reported for the following compound? COC(=O)c1ccc(CN2CCOc3cc4c(cc32)C(C)(C)CCC4(C)C)cc1
# output 187 °C

# input What value of melting point has been reported for the following compound? O=C(O)c1cc(OCCCOc2ccc(-c3ccccc3)cc2)cc(OCCCOc2ccc(-c3ccccc3)cc2)c1
# output 186 to 187 °C

# input What value of melting point has been reported for the following compound? COc1cc(C2=Nc3ccc(N4CCCC4)cc3C(=O)C2)ccc1OCc1ccccc1
# output 304 to 306 °C

# input What value of melting point has been reported for the following compound? CCn1c(=O)c2[nH]c(/C=C/c3cccc(Oc4ccccc4)c3)nc2n(CC)c1=O
# output 241 to 243 °C

# input What value of melting point has been reported for the following compound? Cc1nc2scc(C)n2c(=O)c1CCN1CCC(C(=O)c2ccc(F)cc2)CC1
# output 200 °C

# input What value of melting point has been reported for the following compound? Cc1cc2c(cc1C)C(C(F)(F)F)(C(F)(F)C(F)(F)F)c1cc(C)c(C)cc1O2
# output 139 to 140 °C

# input What value of melting point has been reported for the following compound? CCOC(=O)c1c(O)c2ccc(C)nc2[nH]c1=O
# output 190 to 193 °C

# input What value of melting point has been reported for the following compound? Fc1c(Cl)cccc1Br
# output 43 °C

# input What value of melting point has been reported for the following compound? CCCCc1oc2ccccc2c1C(=O)N(Cc1ccccc1)Cc1ccc2c(Br)c(OCC#N)ccc2c1
# output 105 to 110 °C

# input What value of melting point has been reported for the following compound? CCCOC(=O)c1c(C)nsc1NC(=O)NC
# output 191 °C

# input What value of melting point has been reported for the following compound? CC(C)C1(C)N=C(c2nc3occ([N+](=O)[O-])c3cc2C(=O)O)NC1=O (stereo unspecified)
# output 220 to 237 °C

# input What value of melting point has been reported for the following compound? CCCCCC(=O)c1c(CBr)nc2cc(OC)c(OC)cc2c1-c1ccc(OC)c(OC)c1
# output 146 to 147 °C

# input What value of melting point has been reported for the following compound? COc1ccc(Cn2c(=O)oc(=O)c3cccnc32)cc1
# output 160 °C

# input What value of melting point has been reported for the following compound? Cc1[nH]c(C=O)c(C)c1C(=O)NCC1CCCCN1 (stereo unspecified)
# output 107 to 115 °C

# input What value of melting point has been reported for the following compound? Oc1ccc(-c2ccc(-c3ccccc3)nc2-c2ccc(OCCN3CCCC3)cc2)cc1
# output 176 to 178 °C

---

Quantity kind: melting point

# input What value of melting point has been reported for the following compound? C[Si](C)(C)C#C[C@@]1(O)[C@@H](COC(=O)c2ccc(Cl)cc2)OC(O)[C@@H]1O (stereo partly specified)
# output 130 to 132 °C

# input What value of melting point has been reported for the following compound? COC(=O)C1C(C)=NC(N2CCCC2)=C(C(=O)OC(C)C)C1c1cccc([N+](=O)[O-])c1 (stereo unspecified)
# output 140 °C

# input What value of melting point has been reported for the following compound? Cn1ncc(SCc2ccccc2)c(Cl)c1=O
# output 102 to 104 °C

# input What value of melting point has been reported for the following compound? Cc1cccc(C)c1C(=O)n1cc(F)c(N=CN(C)C)nc1=O
# output 120 to 150 °C

# input What value of melting point has been reported for the following compound? CO[Si](OC)(OC)O[Si](OC)(OC)O[Si](OC)(OC)OC
# output < -70 °C

# input What value of melting point has been reported for the following compound? CNc1nsnc1-c1c(Cl)cccc1Cl
# output 145 to 146 °C

# input What value of melting point has been reported for the following compound? NC(=O)N1c2ccccc2CC(=NO)c2ccccc21
# output 230 to 232 °C

# input What value of melting point has been reported for the following compound? COC(=O)C=Cc1ccc(OCc2nc(-c3ccccc3)c(C)s2)cc1
# output 142 to 143 °C

# input What value of melting point has been reported for the following compound? O=C1Nc2cccc(O)c2C12COc1cc3c(cc12)OCCO3 (stereo unspecified)
# output > 250 °C

# input What value of melting point has been reported for the following compound? CC(C)(C)C(=O)Oc1ccc(C(=O)CBr)cc1OC(=O)C(C)(C)C
# output 64 to 66 °C

# input What value of melting point has been reported for the following compound? O=C(O)C1=Cc2cc(C(F)(F)F)ccc2OC1C(F)(F)F (stereo unspecified)
# output 144 to 145 °C

---

Quantity kind: melting point

# input What value of melting point has been reported for the following compound? CC(C)c1c(/C=C/[C@@H]2C[C@@H](O)CC(=O)O2)n(-c2ccc(F)cc2)c(=O)c2ccccc12
# output 207 to 209 °C

# input What value of melting point has been reported for the following compound? Cc1cccc(C(=O)NC(NC(=NC#N)Nc2cccnc2)C(C)(Cl)Cl)c1 (stereo unspecified)
# output 171 to 172 °C

# input What value of melting point has been reported for the following compound? O=C(OCc1ccccc1Cl)c1ncn2c1[C@@H]1CCCN1C(=O)c1c(Cl)cccc1-2
# output 192 to 193 °C

# input What value of melting point has been reported for the following compound? Oc1nc2ccc3cn[nH]c3c2nc1O
# output > 300 °C

# input What value of melting point has been reported for the following compound? CN(C)C=NC(=O)c1c(N2CCN(Cc3ccccc3)CC2)nn2c(-c3cccc(C(F)(F)F)c3)ccnc12
# output 140 to 142 °C

# input What value of melting point has been reported for the following compound? CC(=O)NC[C@H]1CN(c2cc(F)c(N3CCC(n4nnc(N5CCN(C#N)CC5)n4)CC3)c(F)c2)C(=O)O1
# output 198 to 200 °C

---

Provide the recorded melting point for the entries that follow.

# input What value of melting point has been reported for the following molecule? COc1ccc(C2CNC(=O)S2)cc1OC (stereo not drawn)
# output 167 to 169 °C

# input What value of melting point has been reported for the following molecule? N#Cc1nn(-c2c(Cl)cc(C(F)(F)F)cc2Cl)c(N)c1S(=O)(=O)C(F)(F)F
# output 219 to 222 °C

# input What value of melting point has been reported for the following molecule? COc1ccc(S(=O)(=O)N2C(=O)C(O[Si](C)(C)C)(c3ccccc3OC)c3cc(Cl)ccc32)c(OC)c1 (stereo not drawn)
# output 157 to 158 °C

# input What value of melting point has been reported for the following molecule? Cc1c(Cc2ccccc2)c(=O)oc2cc(OCC3NOC(=O)N3)cc(OCC3NOC(=O)N3)c12 (stereo not drawn)
# output 130 to 136 °C

# input What value of melting point has been reported for the following molecule? N#Cc1nn(-c2c(Cl)cc(C(F)(F)F)cc2Cl)cc1C(=O)C(F)(F)C(F)(F)C(F)(F)F
# output 102 to 103 °C

# input What value of melting point has been reported for the following molecule? CCN(c1cccc2cc(-c3ncc(COc4ccc(C(=O)O)cc4)s3)[nH]c12)S(=O)(=O)c1cccs1
# output 188 °C

# input What value of melting point has been reported for the following molecule? O=C1NCC(C(F)(F)F)C(=O)N1Cc1ccccc1 (stereo not drawn)
# output 129 to 130 °C

# input What value of melting point has been reported for the following molecule? COC(=O)c1cc(C(C)=O)c(C)nc1C1=NC(C)(C(C)C)C(=O)N1 (stereo not drawn)
# output 118 to 120 °C

# input What value of melting point has been reported for the following molecule? CNC(=O)N1CCC(Oc2ccc([N+](=O)[O-])cc2)(c2ccccc2)CC1
# output 110 to 115 °C

# input What value of melting point has been reported for the following molecule? CCCCCCCCCCCCCCCCCCSC(C)CCO (stereo not drawn)
# output 35 to 38 °C

# input What value of melting point has been reported for the following molecule? CNC(=O)N(c1ccncc1)n1cccc1
# output 156 to 160 °C

# input What value of melting point has been reported for the following molecule? CC(=O)NC[C@H]1CN(c2ccc(N3CCC(O)(CO)CC3)c(F)c2)C(=O)O1
# output 98 to 100 °C

# input What value of melting point has been reported for the following molecule? Cc1ccc2c(C(=O)C3CSC(c4cccnc4)N3)c[nH]c2c1 (stereo not drawn)
# output 132 to 138 °C

# input What value of melting point has been reported for the following molecule? Clc1ccc(Oc2nc(Cl)nc(Cl)n2)c(Cl)c1
# output 120 to 122 °C

# input What value of melting point has been reported for the following molecule? Cc1nccn1N=Cc1cc(C(C)(C)C)c(O)c(C(C)(C)C)c1
# output 206 to 207 °C

# input What value of melting point has been reported for the following molecule? COc1cc(C2CCN(CCF)CC2)ccc1Nc1ncc2ccc(-c3ccccc3N(C)S(C)(=O)=O)n2n1
# output 90 to 97 °C

# input What value of melting point has been reported for the following molecule? COc1cccc2c1C(=O)c1c(OC)cc(C(=O)N(C)OCc3ccccc3)cc1C2=O
# output 170 to 171 °C

# input What value of melting point has been reported for the following molecule? CS(=O)(=O)OCc1cc(-c2ccc(OCc3ccccc3)cc2)no1
# output 110 to 112 °C

# input What value of melting point has been reported for the following molecule? CCN(CC)C(=O)c1c(O)cc(C(F)(F)F)cc1-c1ccc(OC)c(OC)c1
# output 161 °C

# input What value of melting point has been reported for the following molecule? CCc1nc2c(n1C(CC)CC)C(=O)N(C)CN2c1ccc(OC)cc1Cl
# output 184 to 185 °C

# input What value of melting point has been reported for the following molecule? CC(C)(ON1C(=O)c2ccccc2C1=O)C(=O)O
# output 133 to 135 °C

# input What value of melting point has been reported for the following molecule? CCOC(=O)c1c(Nc2ccc(F)cc2[N+](=O)[O-])nn(C)c1C
# output 174 °C

# input What value of melting point has been reported for the following molecule? CCCCc1nc2c(N)nc3ccccc3c2n1CCNS(=O)(=O)c1ccc(C)cc1
# output 187 to 188 °C

# input What value of melting point has been reported for the following molecule? CCOC(=O)N=P(c1ccccc1)(c1ccccc1)c1ccccc1C
# output 113 to 114 °C

# input What value of melting point has been reported for the following molecule? CC(C)(O)C(=O)c1ccc(Oc2ccc(C(=O)C(C)(C)O)cc2)cc1
# output 96 to 99 °C

# input What value of melting point has been reported for the following molecule? CC(C)Cn1c(CN)c(-c2ccccc2)c2cc(/C=C/C(N)=O)ccc2c1=O
# output 228 to 230 °C

# input What value of melting point has been reported for the following molecule? CC(C)c1ccc2nc3ccc(C(=O)OCCCc4cccnc4)cn3c(=O)c2c1
# output 108 to 109 °C

# input What value of melting point has been reported for the following molecule? CC(C)(C)OC(=O)NCCCCNC1(c2ccccc2Cl)C(=O)Nc2ccc(Cl)cc21 (stereo not drawn)
# output 175 to 176 °C
